# SUBJECT_OF_TEST: phosphor-EGFR in H1975(L585R/T790M) mutant EGFR expressing cells (Homo sapiens, UniProt P00533, L858R/T790M)
# Sequence (P00533 25-1210 T790M/L858R): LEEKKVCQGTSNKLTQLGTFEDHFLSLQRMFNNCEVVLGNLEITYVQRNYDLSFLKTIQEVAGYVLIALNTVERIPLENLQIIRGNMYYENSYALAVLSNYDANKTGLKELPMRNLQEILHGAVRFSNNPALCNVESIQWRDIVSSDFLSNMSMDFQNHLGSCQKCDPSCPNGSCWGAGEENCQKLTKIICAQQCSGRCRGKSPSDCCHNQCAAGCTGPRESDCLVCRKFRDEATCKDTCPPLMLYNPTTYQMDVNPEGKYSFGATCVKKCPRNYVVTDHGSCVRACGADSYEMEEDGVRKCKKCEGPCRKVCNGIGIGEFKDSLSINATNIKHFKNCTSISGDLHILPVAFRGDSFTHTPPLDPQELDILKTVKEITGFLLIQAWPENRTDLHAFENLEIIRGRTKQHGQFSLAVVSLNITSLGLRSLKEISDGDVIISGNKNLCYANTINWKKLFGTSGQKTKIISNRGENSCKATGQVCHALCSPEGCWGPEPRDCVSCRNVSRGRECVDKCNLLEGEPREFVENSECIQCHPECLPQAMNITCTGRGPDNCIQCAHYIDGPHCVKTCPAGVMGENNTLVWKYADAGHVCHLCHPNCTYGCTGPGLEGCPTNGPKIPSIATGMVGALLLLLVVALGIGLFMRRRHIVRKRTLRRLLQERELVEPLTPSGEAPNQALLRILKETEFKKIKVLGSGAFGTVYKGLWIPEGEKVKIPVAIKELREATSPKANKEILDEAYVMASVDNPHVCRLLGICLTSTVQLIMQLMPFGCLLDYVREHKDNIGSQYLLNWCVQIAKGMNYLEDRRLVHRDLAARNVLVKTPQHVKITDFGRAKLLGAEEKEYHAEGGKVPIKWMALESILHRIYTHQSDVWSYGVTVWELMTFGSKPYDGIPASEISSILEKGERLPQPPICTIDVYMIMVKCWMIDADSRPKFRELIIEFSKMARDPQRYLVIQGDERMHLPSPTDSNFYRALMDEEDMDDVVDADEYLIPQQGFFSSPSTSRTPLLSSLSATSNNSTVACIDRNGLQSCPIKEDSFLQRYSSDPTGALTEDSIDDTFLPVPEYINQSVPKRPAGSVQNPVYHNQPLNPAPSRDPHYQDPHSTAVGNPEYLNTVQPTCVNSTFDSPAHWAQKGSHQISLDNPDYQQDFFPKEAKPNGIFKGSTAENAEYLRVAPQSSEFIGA
# TEST_SUMMARY: H1975 pEGFR MSD cellular assay
# EXPERIMENTAL_CONTEXT: NCI-H1975 cells, serum starved, 1 hour compound incubation, pEGFR Tyr1068 MSD

>  <COMPOUND>
CCC(C)n1cc(C(=O)NC2CCOCC2)c2cnc(Nc3ccnc(-c4cnn(S(=O)(=O)C5CC5)c4)n3)cc21 (single isomer, unassigned; (-))

>  <EC50, nM>
60.9

$$$$
>  <COMPOUND>
COC1CCN(c2nccc(Nc3cc4c(cn3)nc(C)n4C(C)C)n2)CC1

>  <EC50, nM>
871

$$$$
>  <COMPOUND>
COC1CCN(c2nccc(Nc3cc4c(cn3)c(-c3nnc(C)o3)cn4C(C)C)n2)CC1

>  <EC50, nM>
583

$$$$
>  <COMPOUND>
COC1CCN(c2nccc(Nc3cc4c(cn3)nc(C(F)F)n4C(C)C)n2)CC1

>  <EC50, nM>
623

$$$$
>  <COMPOUND>
CCNc1ncc(-c2nccc(Nc3cc4c(cn3)nc(C)n4C(C)C)n2)s1

>  <EC50, nM>
80.6

$$$$
>  <COMPOUND>
CC1(C)COCc2nc3cnc(Nc4ccnc(-c5cnn(S(=O)(=O)C6CC6)c5)n4)cc3n21

>  <EC50, nM>
838

$$$$

====

The reader will find reported Ki values listed item by item below.
# SUBJECT_OF_TEST: EGFR del746-750 T790M (Homo sapiens, UniProt P00533, DEL746-750/T790M)
# Sequence (P00533 with tags, fused parts or gaps DEL746-750/T790M limits assumed): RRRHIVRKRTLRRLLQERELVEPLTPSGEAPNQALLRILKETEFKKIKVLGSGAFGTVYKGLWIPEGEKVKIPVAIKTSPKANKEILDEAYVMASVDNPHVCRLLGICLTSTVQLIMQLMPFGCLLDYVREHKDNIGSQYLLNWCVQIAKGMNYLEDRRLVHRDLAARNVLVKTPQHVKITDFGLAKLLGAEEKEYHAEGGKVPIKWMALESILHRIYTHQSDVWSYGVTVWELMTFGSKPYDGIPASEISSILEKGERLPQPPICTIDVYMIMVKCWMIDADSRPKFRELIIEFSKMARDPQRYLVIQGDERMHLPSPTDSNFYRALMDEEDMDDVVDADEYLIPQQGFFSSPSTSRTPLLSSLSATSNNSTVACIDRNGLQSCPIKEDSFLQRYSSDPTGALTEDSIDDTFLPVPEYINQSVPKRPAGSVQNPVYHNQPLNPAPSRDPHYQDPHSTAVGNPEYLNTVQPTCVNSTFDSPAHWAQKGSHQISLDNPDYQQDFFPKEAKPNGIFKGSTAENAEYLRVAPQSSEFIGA
# TEST_SUMMARY: EGFR del746-750 T790M biochemical assay (Caliper mobility shift)
# EXPERIMENTAL_CONTEXT: 5 μM ATP, 30 min, room temperature; apparent Ki (Morrison) converted by Cheng-Prusoff, Km of ATP 2.1 μM; read-out: EGFR(T790M/d746-750) Ki

>  <MOLECULE>
CC(n1cc(C(=O)NC2CCOCC2)c2cnc(Nc3ccnc(N4CC[C@@H](O)[C@@H](F)C4)n3)cc21)C(F)(F)F (single isomer, unassigned) [Example 639]

>  <MEASUREMENT_UNIT>
nM

>  <Ki>
15

$$$$
>  <MOLECULE>
CC(C)n1cc(C(=O)N[C@@H]2CCN(C3COC3)C[C@@H]2F)c2cnc(Nc3ccnc(-c4cnn(S(=O)(=O)C5CC5)c4)n3)cc21 (racemic) [Example 372]

>  <MEASUREMENT_UNIT>
nM

>  <Ki>
1.08

$$$$
>  <MOLECULE>
Cc1nc2cnc(Nc3ccnc(N4CCC5(OCCO5)C(F)C4)n3)cc2n1C(C)C (stereo not shown) [Example 653]

>  <MEASUREMENT_UNIT>
nM

>  <Ki>
34.3

$$$$
>  <MOLECULE>
CC(=O)Nc1cn(C(C)C)c2cc(Nc3ccnc(-c4cnn(S(=O)(=O)C5CC5)c4)n3)ncc12 [Example 327]

>  <MEASUREMENT_UNIT>
nM

>  <Ki>
0.53

$$$$

====

# SUBJECT_OF_TEST: EGFR del746-750 T790M (Homo sapiens, UniProt P00533, DEL746-750/T790M)
# Construct: purchased Carna Biosciences 08-528
# TEST_SUMMARY: EGFR del746-750 T790M biochemical assay (Caliper mobility shift)
# EXPERIMENTAL_CONTEXT: 5 μM ATP, 30 min, room temperature; apparent Ki (Morrison) converted by Cheng-Prusoff, Km of ATP 2.1 μM; read-out: EGFR(T790M/d746-750) Ki
pKi: −log10 of the molar value.
Classify on pKi using bin A: < 7; bin B: ≥ 7 and < 8; bin C: ≥ 8

>  <COMPOUND>
CO[C@H]1CCN(c2nccc(Nc3cc4c(cn3)nc(CO)n4C(C)C)n2)C[C@H]1F (racemic) [Example 526]

>  <GROUP>
bin B

$$$$
>  <COMPOUND>
C[C@H](n1c([C@@H](C)O)nc2cnc(Nc3ccnc(N4CC[C@@H](O)[C@@H](F)C4)n3)cc21)C(F)(F)F

>  <GROUP>
bin C

$$$$
>  <COMPOUND>
CCNc1nc2cnc(Nc3ccnc(-c4cnn(S(=O)(=O)C5CC5)c4)n3)cc2n1C(C)C

>  <GROUP>
bin C

$$$$
>  <COMPOUND>
CCC(C)n1cc(C(=O)NC2CCOCC2)c2cnc(Nc3ccnc(N4CC[C@@H](O)[C@@H](F)C4)n3)cc21 (single isomer, unassigned) [Example 324]

>  <GROUP>
bin C

$$$$
>  <COMPOUND>
CC(C)n1c([C@@H](C)O)nc2cnc(Nc3ccnc(-c4cnn(S(=O)(=O)C5CC5)c4)n3)cc21

>  <GROUP>
bin C

$$$$
>  <COMPOUND>
CCC(C)n1cc(C(=O)NCCO)c2cnc(Nc3ccnc(-c4cnn(S(=O)(=O)C5CC5)c4)n3)cc21 (centres unmarked)

>  <GROUP>
bin C

$$$$
>  <COMPOUND>
CCC(C)n1cc(C(=O)NC2CCOCC2)c2cnc(Nc3ccnc(N4CCC(O)C(C)(C)C4)n3)cc21 (mixture of isomers) [Example 383]

>  <GROUP>
bin C

$$$$
>  <COMPOUND>
Cc1nc2cnc(Nc3ccnc(N4CCC5(CC4)OCCCO5)n3)cc2n1C(C)C

>  <GROUP>
bin A

$$$$
>  <COMPOUND>
CO[C@H]1CCN(c2nccc(Nc3cc4c(cn3)nc(C)n4C(C)C)n2)C[C@H]1F (racemic) [Example 524]

>  <GROUP>
bin B

$$$$
>  <COMPOUND>
Cc1cc(-c2cn(C(C)C)c3cc(Nc4ccnc(-c5cnn(S(=O)(=O)C6CC6)c5)n4)ncc23)nn1CCO

>  <GROUP>
bin C

$$$$
>  <COMPOUND>
CC(C)n1c(CO)nc2cnc(Nc3ccnc(N4CC[C@H]([S+](C)[O-])[C@H](F)C4)n3)cc21 (relative stereo)

>  <GROUP>
bin A

$$$$
>  <COMPOUND>
COC1CCN(c2nccc(Nc3cc4c(cn3)nc(C)n4Cc3ccccc3)n2)CC1

>  <GROUP>
bin A

$$$$
>  <COMPOUND>
CO[C@H]1CCN(c2nccc(Nc3cc4c(cn3)nc(CO)n4C(C)C)n2)C[C@@H]1F (racemic)

>  <GROUP>
bin A

$$$$
>  <COMPOUND>
C[C@H](n1c([C@@H](C)O)nc2cnc(Nc3ccnc(N4CCC(O)C(F)C4)n3)cc21)C(F)(F)F (mixture of isomers)

>  <GROUP>
bin C

$$$$
>  <COMPOUND>
CC(C)n1c(CO)nc2cnc(Nc3ccnc(N4C[C@@H]5C[C@H]4CO5)n3)cc21

>  <GROUP>
bin A

$$$$
>  <COMPOUND>
CCC(C)n1cc(C(=O)NC2CCOC2)c2cnc(Nc3ccnc(N4CCC(O)C(C)(C)C4)n3)cc21 (mixture of isomers)

>  <GROUP>
bin C

$$$$
>  <COMPOUND>
CCC(C)n1cc(C(=O)NC2CCOCC2)c2cnc(Nc3ccnc(N4CC[C@@H](O)[C@@H](F)C4)n3)cc21 (single isomer, unassigned) [Example 323]

>  <GROUP>
bin C

$$$$
>  <COMPOUND>
CC(C)n1c([C@@H](C)O)nc2cnc(Nc3ccnc(N4CC[C@@H](O)[C@@H](F)C4)n3)cc21

>  <GROUP>
bin B

$$$$
